System: CK1α (Homo sapiens, UniProt P48729+Q96SW2)
Construct: CSNK1A1-HiBit KI HEK293(LgBit) Cells; host or cells: HEK293(LgBit) knock-in cells
Sequence (P48729 whole entry): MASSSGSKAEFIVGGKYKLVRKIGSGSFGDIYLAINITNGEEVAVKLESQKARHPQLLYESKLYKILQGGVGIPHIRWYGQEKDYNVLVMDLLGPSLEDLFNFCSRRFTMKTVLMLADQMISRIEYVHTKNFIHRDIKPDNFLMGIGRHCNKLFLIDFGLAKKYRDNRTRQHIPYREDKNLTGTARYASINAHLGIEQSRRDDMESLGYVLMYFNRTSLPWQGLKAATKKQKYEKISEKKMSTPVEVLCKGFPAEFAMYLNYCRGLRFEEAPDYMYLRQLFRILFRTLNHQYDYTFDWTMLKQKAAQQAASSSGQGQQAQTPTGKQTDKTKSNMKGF
Sequence (Q96SW2 whole entry): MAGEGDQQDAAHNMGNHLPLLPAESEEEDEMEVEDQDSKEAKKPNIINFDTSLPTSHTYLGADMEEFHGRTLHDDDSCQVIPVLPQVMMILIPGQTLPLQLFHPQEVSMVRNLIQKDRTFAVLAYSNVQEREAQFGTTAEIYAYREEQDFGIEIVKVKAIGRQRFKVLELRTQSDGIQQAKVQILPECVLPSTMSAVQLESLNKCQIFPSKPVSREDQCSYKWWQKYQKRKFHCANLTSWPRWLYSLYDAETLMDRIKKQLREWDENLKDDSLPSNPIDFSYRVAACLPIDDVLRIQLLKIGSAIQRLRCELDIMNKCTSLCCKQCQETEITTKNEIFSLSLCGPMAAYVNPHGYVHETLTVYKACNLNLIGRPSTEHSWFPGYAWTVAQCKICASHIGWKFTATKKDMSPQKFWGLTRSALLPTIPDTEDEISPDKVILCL
Sequence (Q16531 whole entry partner): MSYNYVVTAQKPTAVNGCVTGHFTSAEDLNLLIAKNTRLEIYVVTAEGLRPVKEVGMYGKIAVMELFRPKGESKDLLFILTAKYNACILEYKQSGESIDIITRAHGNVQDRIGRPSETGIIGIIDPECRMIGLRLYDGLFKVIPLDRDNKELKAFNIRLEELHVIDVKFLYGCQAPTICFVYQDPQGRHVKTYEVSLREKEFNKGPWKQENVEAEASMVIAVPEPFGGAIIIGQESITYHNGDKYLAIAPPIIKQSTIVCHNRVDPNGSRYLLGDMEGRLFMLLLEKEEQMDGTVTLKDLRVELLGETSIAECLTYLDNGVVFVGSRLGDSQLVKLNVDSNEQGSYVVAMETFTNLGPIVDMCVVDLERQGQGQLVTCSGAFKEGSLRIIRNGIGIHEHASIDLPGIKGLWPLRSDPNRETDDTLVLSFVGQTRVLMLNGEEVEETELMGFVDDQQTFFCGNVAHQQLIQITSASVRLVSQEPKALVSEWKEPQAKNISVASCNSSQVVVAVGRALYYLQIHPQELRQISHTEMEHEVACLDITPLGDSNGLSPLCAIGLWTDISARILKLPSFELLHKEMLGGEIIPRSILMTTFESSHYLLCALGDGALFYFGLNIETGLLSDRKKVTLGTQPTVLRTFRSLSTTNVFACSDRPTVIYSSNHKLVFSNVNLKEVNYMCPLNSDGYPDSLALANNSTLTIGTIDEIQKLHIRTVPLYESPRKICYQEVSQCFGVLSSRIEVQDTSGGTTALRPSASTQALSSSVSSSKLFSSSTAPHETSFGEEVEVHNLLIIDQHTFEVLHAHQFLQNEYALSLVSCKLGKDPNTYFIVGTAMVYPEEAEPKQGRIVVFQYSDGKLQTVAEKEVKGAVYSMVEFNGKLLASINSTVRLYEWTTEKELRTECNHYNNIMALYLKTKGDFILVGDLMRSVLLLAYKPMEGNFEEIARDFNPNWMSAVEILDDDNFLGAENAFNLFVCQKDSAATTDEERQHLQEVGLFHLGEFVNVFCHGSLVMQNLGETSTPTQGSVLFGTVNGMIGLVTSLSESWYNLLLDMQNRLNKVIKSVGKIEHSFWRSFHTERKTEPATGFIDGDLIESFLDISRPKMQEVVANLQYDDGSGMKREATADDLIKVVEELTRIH
Test name: HiBiT degradation assay, CK1α, Procedure A
Format: cell-based
Cond: six hours incubation
Description: Compounds were spotted onto Cornin 384-Well, Cell Culture-Treated, Flat-Bottom, Low Flange Microplate (Fisher Scientific, Catalog #07-201-013) using a Tecan D300e digital dispenser. […] Cells were dissociated from tissue 182 cm^2 Tissue Culture Flask (CellTreat Catalog #229351) by washing the cells with PBS (Fisher Scientific Catalog #BP3994) followed by dissociation with Trypsin-EDTA (0.25%) (Thermo Scientific Catalog #25200056). […] Cell density was determined using a Denovix CellDrop BF cell counter. […]

# Compound, CK1α Ymin
measured = [
    ("O=C1CCC(N2Cc3cc(-c4nccn4C4CCCCC4)ccc3C2=O)C(=O)N1 (centres unmarked) [Example 48]", "C (C = 0-10% remaining)"),
    ("CN(C)Cc1ccc(-c2c(-c3ccc4c(c3)CN(C3CCC(=O)NC3=O)C4=O)ncn2C)cc1 (centres unmarked) [Example 269]", "C (C = 0-10% remaining)"),
]

---

System: CK1α (Homo sapiens, UniProt P48729+Q96SW2)
Construct: CSNK1A1-HiBit KI HEK293(LgBit) Cells; host or cells: HEK293(LgBit) knock-in cells
Test name: HiBiT degradation assay, CK1α, Procedure A
Assay type: cell-based
Cond: six hours incubation
Result type: CK1α Ymin

# Compound, Result
data = [
    ("COc1ccc(-c2c(-c3ccc4c(c3)CN(C3CCC(=O)NC3=O)C4=O)ncn2C)cn1 (stereo not shown)", "C (C = 0-10% remaining)"),
    ("Cn1c(C2CC2)nc(-c2ccc3c(c2)CN(C2CCC(=O)NC2=O)C3=O)c1-c1cccnc1 (stereo not shown)", "C (C = 0-10% remaining)"),
]

---

System: GSPT1 (Homo sapiens, UniProt P15170+Q96SW2)
Sequence (P15170 whole entry): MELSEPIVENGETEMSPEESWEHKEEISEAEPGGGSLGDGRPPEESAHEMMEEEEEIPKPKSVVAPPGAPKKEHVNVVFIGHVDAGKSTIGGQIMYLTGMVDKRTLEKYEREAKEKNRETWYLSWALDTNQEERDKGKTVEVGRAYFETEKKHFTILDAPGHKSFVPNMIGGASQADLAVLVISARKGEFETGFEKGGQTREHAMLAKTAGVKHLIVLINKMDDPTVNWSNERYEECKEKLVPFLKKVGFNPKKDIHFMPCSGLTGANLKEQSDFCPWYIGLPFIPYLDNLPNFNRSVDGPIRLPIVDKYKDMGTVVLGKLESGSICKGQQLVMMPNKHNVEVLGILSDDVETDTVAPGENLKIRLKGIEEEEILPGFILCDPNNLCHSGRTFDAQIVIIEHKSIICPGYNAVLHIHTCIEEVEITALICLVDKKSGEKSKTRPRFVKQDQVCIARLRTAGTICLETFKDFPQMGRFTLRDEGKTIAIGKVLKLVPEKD
Sequence (Q96SW2 whole entry): as the sequence (Q96SW2 whole entry) above
Sequence (Q16531 whole entry partner): as the sequence (Q16531 whole entry partner) above
Test name: HiBiT degradation assay, GSPT1, Procedure A
Type: cell-based
Design: HiBit-GSPT1 KI HEK293(LgBit) Cells; host or cells: HEK293(LgBit) knock-in cells
Cond: six hours incubation
The reader will find reported DC50 values listed item by item below.
Result type: DC50

# Compound, System, Result
measured = [
    ("Cc1ccsc1-c1c(-c2ccc3c(c2)CN(C2CCC(=O)NC2=O)C3=O)cnn1C (stereo not shown) [Example 126]", "GSPT1 (Homo sapiens, UniProt P15170+Q96SW2)", "≥ 0.025 µM"),
    ("Cn1cnc(-c2ccc3c(c2)CN(C2CCC(=O)NC2=O)C3=O)c1-c1ccc(Cl)s1 (stereo not shown) [Example 181]", "GSPT1 (Homo sapiens, UniProt P15170+Q96SW2)", "≥ 0.025 µM"),
    ("Cn1cnc(-c2ccc3c(c2)CN(C2CCC(=O)NC2=O)C3=O)c1-c1ccccc1C(F)(F)F (stereo not shown) [Example 282]", "GSPT1 (Homo sapiens, UniProt P15170+Q96SW2)", "≥ 0.025 µM"),
    ("Cn1cnc(-c2ccc3c(c2)CN(C2CCC(=O)NC2=O)C3=O)c1-c1ccc(-c2ccccc2)cc1 (stereo not shown) [Example 294]", "GSPT1 (Homo sapiens, UniProt P15170+Q96SW2)", "< 0.025 µM"),
    ("COc1cc(C#N)ccc1-c1c(-c2ccc3c(c2)CN(C2CCC(=O)NC2=O)C3=O)ncn1C (stereo not shown) [Example 263]", "GSPT1 (Homo sapiens, UniProt P15170+Q96SW2)", "< 0.025 µM"),
    ("Cn1ncc(-c2ccc3c(c2)CN(C2CCC(=O)NC2=O)C3=O)c1-c1ccc(Cl)c(F)c1 (stereo not shown) [Example 90]", "GSPT1 (Homo sapiens, UniProt P15170+Q96SW2)", "≥ 0.025 µM"),
    ("Cn1ncc(-c2ccc3c(c2)CN(C2CCC(=O)NC2=O)C3=O)c1-c1cccc(O)c1 (stereo not shown) [Example 219]", "GSPT1 (Homo sapiens, UniProt P15170+Q96SW2)", "≥ 0.025 µM"),
    ("Cn1cnc(-c2ccc3c(c2)CN(C2CCC(=O)NC2=O)C3=O)c1-c1ccc(-c2ccncc2)cc1 (stereo not shown) [Example 305]", "GSPT1 (Homo sapiens, UniProt P15170+Q96SW2)", "< 0.025 µM"),
    ("Cn1ncc(-c2ccc3c(c2)CN(C2CCC(=O)NC2=O)C3=O)c1-c1cccc(N2CCCC2)c1 (stereo not shown) [Example 55]", "GSPT1 (Homo sapiens, UniProt P15170+Q96SW2)", "≥ 0.025 µM"),
    ("CC(C)n1cc(-c2c(-c3ccc4c(c3)CN(C3CCC(=O)NC3=O)C4=O)ncn2C)cn1 (stereo not shown) [Example 330]", "GSPT1 (Homo sapiens, UniProt P15170+Q96SW2)", "≥ 0.025 µM"),
    ("Cn1ccc(-c2c(-c3ccc4c(c3)CN(C3CCC(=O)NC3=O)C4=O)cnn2C)c1 (stereo not shown) [Example 363]", "GSPT1 (Homo sapiens, UniProt P15170+Q96SW2)", "< 0.025 µM"),
    ("Cc1cc(-c2c(-c3ccc4c(c3)CN(C3CCC(=O)NC3=O)C4=O)ncn2C)ccc1F (stereo not shown) [Example 238]", "GSPT1 (Homo sapiens, UniProt P15170+Q96SW2)", "≥ 0.025 µM"),
    ("Cc1cncc(-c2c(-c3ccc4c(c3)CN(C3CCC(=O)NC3=O)C4=O)ncn2C)c1 (stereo not shown) [Example 321]", "GSPT1 (Homo sapiens, UniProt P15170+Q96SW2)", "≥ 0.025 µM"),
    ("CN(C)Cc1ccc(-c2c(-c3ccc4c(c3)CN(C3CCC(=O)NC3=O)C4=O)cnn2C)cc1 (stereo not shown) [Example 224]", "GSPT1 (Homo sapiens, UniProt P15170+Q96SW2)", "≥ 0.025 µM"),
    ("Cn1cnc(-c2ccc3c(c2)CN(C2CCC(=O)NC2=O)C3=O)c1-c1ccc(NC(=O)c2ccccc2)cc1 (stereo not shown) [Example 356]", "GSPT1 (Homo sapiens, UniProt P15170+Q96SW2)", "≥ 0.025 µM"),
    ("Cn1cnc(-c2ccc3c(c2)CN(C2CCC(=O)NC2=O)C3=O)c1-c1ccc(C(=O)NC2CCCC2)cc1 (stereo not shown) [Example 300]", "GSPT1 (Homo sapiens, UniProt P15170+Q96SW2)", "≥ 0.025 µM"),
]

src = patent US20240158370A1
